# assay.system: T1, tip-chimeric peptide IhfA5-mIhfB4NTHI (nontypeable Haemophilus influenzae …)
# T1 construct: also called IHF(NTHI) tip chimeric peptide; IHFNTHI tip chimeric peptide
# T1 peptide: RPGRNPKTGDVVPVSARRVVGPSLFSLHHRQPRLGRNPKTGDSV
# test.name: direct ELISA #1, peptide coated (curves not reaching equilibrium)

binder	EC50
humanized anti-tip monoclonal antibody, heavy chain SEQ ID NO: 2 and light chain SEQ ID NO: 7 (antibody, V domains shown, also called H10211 (1F8.F1 Humanized HC2) + L10210 (1F8.F1 Humanized LC1)) VH: EVQLVESGGGLVQPGGSLRLSCAASGFTFRTYAMSWVRQAPGKGLEWVATIGSDRRHTYYPDSVKGRFTISRDNSKNTLYLQMNSLRAEDTAVYYCVGPYDGYYGEFDYWGQGTLVTVSS VL: DVVMTQSPLSLPVTLGQPASISCRSSQSLLDSDGKTFLNWLQQRPGQSPRRLIYLVSKLDSGVPDRFSGSGSGTDFTLKISRVEAEDVGVYYCWQGTHFPYTFGQGTKLEIKR	0.049 µg/mL
humanized anti-tip monoclonal antibody, heavy chain SEQ ID NO: 3 and light chain SEQ ID NO: 9 (antibody, V domains shown, also called H10212 (1F8.F1 Humanized HC3) + L10212 (1F8.F1 Humanized LC3)) VH: EVKLVQSGAEVKKPGASVKVSCKASGFTFRTYAMSWVRQAPGQRLEWVATIGSDRRHTYYPDKFQGRVTITRDNAKNTLYMELSSLRSEDTAVYYCVGPYDGYYGEFDYWGQGTLVTVSS VL: DVVMTQSPDSLAVSLGERATINCKSSQSLLDSDGKTFLNWLQQKPGQPPKRLIYLVSKLDSGVPDRFSGSGSGTDFTLTISSLQAEDVAVYYCWQGTHFPYTFGQGTKLEIKR	0.035 µg/mL
humanized anti-tip monoclonal antibody, heavy chain SEQ ID NO: 2 and light chain SEQ ID NO: 8 (antibody, V domains shown, also called H10211 (1F8.F1 Humanized HC2) + L10211 (1F8.F1 Humanized LC2)) VH: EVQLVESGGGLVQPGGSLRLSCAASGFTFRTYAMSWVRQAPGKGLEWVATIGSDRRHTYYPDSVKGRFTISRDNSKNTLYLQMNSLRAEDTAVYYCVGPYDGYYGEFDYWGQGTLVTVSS VL: DVVMTQSPLSLPVTLGQPASISCRSSQSLLDSDGKTFLNWLQQRPGQSPRRLIYLVSKRDSGVPDRFSGSGSGTDFTLKISRVEAEDVGVYYCWQGTHFPYTFGQGTKLEIKR	0.055 µg/mL
humanized anti-tip monoclonal antibody, heavy chain SEQ ID NO: 1 and light chain SEQ ID NO: 8 (antibody, V domains shown, also called H10210 (1F8.F1 Humanized HC1) + L10211 (1F8.F1 Humanized LC2)) VH: EVKLVESGGGLVQPGGSLRLSCAASGFTFRTYAMSWVRQAPGKGLEWVATIGSDRRHTYYPDSVKGRFTISRDNAKNTLYLQMNSLRAEDTAVYYCVGPYDGYYGEFDYWGQGTLVTVSS VL: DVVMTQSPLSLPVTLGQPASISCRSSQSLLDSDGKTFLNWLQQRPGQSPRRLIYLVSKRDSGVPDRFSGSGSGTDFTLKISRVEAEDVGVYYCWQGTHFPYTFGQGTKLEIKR	0.066 µg/mL
humanized anti-tip monoclonal antibody, heavy chain SEQ ID NO: 1 and light chain SEQ ID NO: 7 (antibody, V domains shown, also called HuTipMab; TP-21949) VH: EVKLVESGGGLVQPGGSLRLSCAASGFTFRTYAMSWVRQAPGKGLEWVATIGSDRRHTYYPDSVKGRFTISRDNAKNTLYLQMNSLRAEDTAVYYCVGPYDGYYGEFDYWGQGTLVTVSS VL: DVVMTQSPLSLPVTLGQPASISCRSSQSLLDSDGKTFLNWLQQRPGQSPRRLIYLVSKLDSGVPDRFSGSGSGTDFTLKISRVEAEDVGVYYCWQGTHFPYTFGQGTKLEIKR	0.06 µg/mL

All figures here come from patent US20210206841A1.
